- Tested on: Plasmodium berghei
- assay-name: Screen against P. berghei liver stage (PbLuc), transformed with Luciferase, at 10uM
- Type: functional, HepG2
- measurement-parameters: tested at 10 uM
The campaign covered roughly 69,000 compounds. About 8,600 (12%) showed an effect of 50% or more. The list comes from a sample in which strong results are over-represented; it also holds close analogues and randomly drawn compounds.
measurement-name: INHIBITION (%)
Report the value in % with no unit label.

If you can, please state the reported INHIBITION value of `COc1c(Br)c(C(=O)NC2CC2)nn1C` . 33.3

If you can, please state the reported INHIBITION value of `CC(=O)NCCNC(=O)c1cnc2c(c1)nc(-c1ccccc1Cl)n2C` . -76.5

If you can, please state the reported INHIBITION value of `O=C(CCC1CCCC1)N1C[C@@H]2CC[C@H]1CN(Cc1ccncc1)C2` . 27.6

If you can, please state the reported INHIBITION value of CC(O)(CCc1ccccc1)CNC(=O)c1ccsc1 (stereo unspecified) . 50.2

If you can, please state the reported INHIBITION value of `COc1c(Br)c(C(=O)NC2CCCCC2)nn1C` . -37.1

If you can, please state the reported INHIBITION value of `CNC(=O)c1cn2cc(-c3ccc(F)cc3)n(CC=C(C)C)c(=O)c2n1` . 69.3

If you can, please state the reported INHIBITION value of `CN(C)C(=O)c1cn2cc(-c3cccc(Cl)c3)n(CC3CC3)c(=O)c2n1` . 17.8
